All figures here come from the supplement of paper PMC3545927.

molecular target: furin, P09958; assay: furin cleavage Z-score vs untreated control; higher = more cleavage, active = 3.5 or more, inactive = 1 or less, 8 variable residues between constant flanks; details: 30 min;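 note: purified furin at 1:10 enzyme:substrate in 50 mM HEPES pH 7.5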
Sequence (P09958 whole entry): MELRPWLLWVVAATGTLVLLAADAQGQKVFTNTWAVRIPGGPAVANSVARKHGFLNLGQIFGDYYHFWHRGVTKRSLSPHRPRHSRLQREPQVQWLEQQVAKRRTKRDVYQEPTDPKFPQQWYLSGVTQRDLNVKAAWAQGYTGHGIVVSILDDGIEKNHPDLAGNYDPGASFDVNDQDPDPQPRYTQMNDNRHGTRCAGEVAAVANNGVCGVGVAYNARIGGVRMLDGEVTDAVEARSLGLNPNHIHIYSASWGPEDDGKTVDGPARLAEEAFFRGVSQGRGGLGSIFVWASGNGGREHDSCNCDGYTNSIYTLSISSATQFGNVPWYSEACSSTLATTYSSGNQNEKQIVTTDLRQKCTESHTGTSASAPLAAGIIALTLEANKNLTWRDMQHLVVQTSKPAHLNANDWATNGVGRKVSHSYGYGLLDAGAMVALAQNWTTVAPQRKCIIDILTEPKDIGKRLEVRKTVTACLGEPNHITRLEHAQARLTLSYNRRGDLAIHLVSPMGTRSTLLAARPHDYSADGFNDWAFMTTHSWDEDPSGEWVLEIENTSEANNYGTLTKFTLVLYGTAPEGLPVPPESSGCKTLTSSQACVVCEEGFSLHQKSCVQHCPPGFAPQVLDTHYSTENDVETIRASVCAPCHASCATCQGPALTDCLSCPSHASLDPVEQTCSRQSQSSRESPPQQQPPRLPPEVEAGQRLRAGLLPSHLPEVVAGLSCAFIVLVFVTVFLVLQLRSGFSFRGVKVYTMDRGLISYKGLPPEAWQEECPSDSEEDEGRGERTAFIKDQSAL
The list shows a part of the results. The true hit rate is not given.
Possible outcomes: active, inactive

>>> qualitative_label("CACVLRSKRDAGNASASA [FS-406]")
"active"
>>> qualitative_label("CACVSRSKRDAGNASASA [FS-407]")
"active"
>>> qualitative_label("CAHWSMSKRDAGNASASA [FS-335]")
"inactive"
>>> qualitative_label("CAGAVQWMNRAGNASASA [HC1116]")
"inactive"
